Entries annotated with measured log10 IC50
biological target: CDK2/CycE (Homo sapiens, UniProt P24941); construct: GST; purchased ProQinase GmbH (Freiburg, Germany); host or cells: insect cells (Sf9); assay: CDK2/CycE kinase assay (TR-FRET, Method 2a); format: biochemical; conditions: 10 μM ATP
Note the log scale: values are log10 of IC50 expressed in nM.

Check out these entries, answers already filled in.
CS(=N)(=O)Cc1cc2nc(c1)OCCCCOc1cc(F)ccc1-c1cc(ncc1F)N2 (racemic)    1.30
CS(=O)(Cc1cc2nc(c1)OCCCOc1cc(F)ccc1-c1cc(ncc1F)N2)=NS(=O)(=O)CCN (racemic)    1.48

Given the compound CS(=N)(=O)Cc1cc2nc(c1)OCCCOc1cc(F)ccc1-c1cc(ncc1F)N2 (single isomer, unassigned; enantiomer 2) [Example 7] , what is its reported log10 IC50? 0.38

Name the reported log10 IC50 value associated with the compound C[S+]([O-])Cc1cc2nc(c1)OCCCCOc1cc(F)ccc1-c1cc(ncc1F)N2 (racemic) 1.22

# query: log10 IC50 of entry CS(=N)(=O)Cc1cc2nc(c1)OCCCOc1cc(F)ccc1-c1cc(ncc1F)N2 (racemic) [Example 5] 0.30

Entry CS(=O)(Cc1cc2nc(c1)OCCCOc1cc(F)ccc1-c1cc(ncc1F)N2)=NS(=O)(=O)CCN.O=C(O)C(F)(F)F (racemic) [Example 24, trifluoroacetate] has what log10 IC50? 1.13

Endpoint output: log10 IC50 of C[S+]([O-])Cc1cc2nc(c1)OCCOc1cc(F)ccc1-c1cc(ncc1F)N2 (racemic) . Value? 2.62
